From: patent US20110118131A1

So I've got a bunch of binders here, and I need their fold difference in affinity vs parental values.
Target: T1, IL-1beta (UniProt P01584 117-269)
T1 construct: also called IL-1β
Test: Biacore

// field: fold difference in affinity vs parental; key: XPA23 Fab, heavy chain F35S (Fab, V domains shown) VH: EVQLLESGGGLVQPGGSLRLSCAASGFTFSKYFMSWVRQAPGKGLEWVSVISPSGGMTRYADSVKGRFTISRDNSKNTLYLQMNSLRAEDTAVYYCARVGYGGNSDYWGQGTLVTVSS VL: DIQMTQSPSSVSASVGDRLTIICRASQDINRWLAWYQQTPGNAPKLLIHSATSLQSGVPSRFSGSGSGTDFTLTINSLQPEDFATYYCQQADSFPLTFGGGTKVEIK ; value = 0.09 fold

// field: fold difference in affinity vs parental; key: XPA23 Fab, heavy chain P53W (Fab, V domains shown) VH: EVQLLESGGGLVQPGGSLRLSCAASGFTFSKYFMFWVRQAPGKGLEWVSVISWSGGMTRYADSVKGRFTISRDNSKNTLYLQMNSLRAEDTAVYYCARVGYGGNSDYWGQGTLVTVSS VL: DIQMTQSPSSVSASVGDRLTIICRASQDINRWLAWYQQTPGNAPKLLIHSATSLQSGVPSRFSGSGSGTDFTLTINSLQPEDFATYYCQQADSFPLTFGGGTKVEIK ; value = 0.05 fold

// field: fold difference in affinity vs parental; key: XPA23 Fab, heavy chain M57Q (Fab, V domains shown) VH: EVQLLESGGGLVQPGGSLRLSCAASGFTFSKYFMFWVRQAPGKGLEWVSVISPSGGQTRYADSVKGRFTISRDNSKNTLYLQMNSLRAEDTAVYYCARVGYGGNSDYWGQGTLVTVSS VL: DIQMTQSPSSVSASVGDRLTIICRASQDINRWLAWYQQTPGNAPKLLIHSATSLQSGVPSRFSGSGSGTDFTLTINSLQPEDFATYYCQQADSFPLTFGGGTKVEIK ; value = 0.02 fold
